Each recorded value in this set is attributed to ChEMBL document CHEMBL1138479.

# target.system: Nucleic Acid
# test.description: Binding affinity to DNA assessed as intercalation after 24 hrs by DNA-methyl green assay
pIC50: −log10 of the molar value.
Quick reference: pIC50 of the listed items.

These solved cases illustrate the format of a correct answer.
1) CCN1CCCC1CNc1c2cc(Cl)ccc2nc2[nH]c3ccccc3c12 (stereo unspecified) = < 3.00
2) CCN(CC)CCCC(C)Nc1ccc2c3cc4ccccc4n(C)c-3nc2c1 (stereo unspecified) = 3.66
3) CN1CCN(c2c3c4ccccc4nc-3n(C)c3ccc(Cl)cc23)CC1 = 3.45
4) Cn1c2nc3ccc(Cl)cc3c-2cc2ccccc21 = < 3.00
5) Cn1c2nc3ccccc3c-2c(Cl)c2c(Cl)cccc21 = < 3.00

Okay, next one:
Fill blank: measured pIC50 of the molecule CCN(CC)CCCC(C)Nc1c2cc(Cl)ccc2nc2[nH]c3ccccc3c12 (stereo unspecified) is ____.
< 3.00

====

# target.system: Histidine-rich protein PFHRP-II (Plasmodium falciparum)
# Sequence (P05227 whole entry): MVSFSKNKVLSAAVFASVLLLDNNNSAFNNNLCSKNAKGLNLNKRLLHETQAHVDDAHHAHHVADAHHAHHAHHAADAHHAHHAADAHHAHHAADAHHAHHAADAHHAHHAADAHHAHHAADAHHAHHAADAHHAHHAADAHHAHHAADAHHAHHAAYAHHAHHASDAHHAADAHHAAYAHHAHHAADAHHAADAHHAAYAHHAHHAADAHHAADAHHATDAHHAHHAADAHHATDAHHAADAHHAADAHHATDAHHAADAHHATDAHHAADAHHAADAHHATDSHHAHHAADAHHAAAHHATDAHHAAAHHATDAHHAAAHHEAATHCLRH
# test.description: Inhibition of beta-hematin formation after 18 hrs by microtiter plate assay
# Format: functional
measurement.name: IC50 (milliequivalent)
Numeric answer only, unit milliequivalent assumed.

These solved cases illustrate the format of a correct answer.
1) CN1CCN(c2c3cc(Cl)ccc3nc3[nH]c4ccccc4c23)CC1 = 2.09
2) Cn1c2nc3ccccc3c-2cc2cc(Cl)ccc21 = 1.31
3) OCCN1CCN(c2c3cc(Cl)ccc3nc3[nH]c4ccccc4c23)CC1 = 2
4) Clc1ccc2nc3[nH]c4ccccc4c3c(NCCN3CCCC3)c2c1 = 5.4
5) Cn1c2nc3ccccc3c-2c(Cl)c2ccc(Cl)cc21 = 1.14

Okay, next one:
Item: Cn1c2nc3ccccc3c-2cc2ccccc21 [NEOCRYPTOLEPINE] Test system: Histidine-rich protein PFHRP-II (Plasmodium falciparum) Read-out: IC50 Value: ?
5.97

====

# target.system: Nucleic Acid
# test.description: Binding affinity to DNA assessed as intercalation after 24 hrs by DNA-methyl green assay
pIC50: −log10 of the molar value.
Quick reference: pIC50 of the listed items.

1) CCN(CC)CCCC(C)Nc1c2c3ccccc3nc-2n(C)c2cccc(Cl)c12 (stereo unspecified) = < 3.00
2) Cn1c2nc3ccccc3c-2c(Cl)c2cc(Cl)ccc21 = < 3.00

Fill blank: measured pIC50 of the molecule Cn1c2nc3ccccc3c-2c(N2CCC(N3CCCCC3)CC2)c2cc(Cl)ccc21 is ____.
3.74

====

# test.description: Selectivity index, ratio of IC50 for human MRC5 SV2 cells to IC50 for chloroquine-sensitive Plasmodium falciparum Ghana
# Format: toxicity, cell-based
# test.parameters: read-out: Ratio IC50
Quick reference: selectivity ratio of the listed items.
Answer with a bare number; do not write a unit.

Fill blank: measured selectivity ratio of the compound CCN(CC)CCCC(C)Nc1ccc2c3cc4ccccc4n(C)c-3nc2c1 (stereo unspecified) is ____.
1800

# repeat for CN1CCN(c2c3cc(Cl)ccc3nc3[nH]c4ccccc4c23)CC1
1

# repeat for CCN(CC)CCCC(C)Nc1c2ccc(Cl)cc2nc2[nH]c3ccccc3c12 (stereo unspecified)
107

# repeat for CCN1CCCC1CNc1c2cc(Cl)ccc2nc2[nH]c3ccccc3c12 (stereo unspecified)
39

# repeat for OCCN1CCN(c2c3cc(Cl)ccc3nc3[nH]c4ccccc4c23)CC1
0.9

# repeat for Cn1c2nc3ccccc3c-2c(NCCN2CCOCC2)c2cc(Cl)ccc21
0.5

# repeat for CCN(CC)CCCC(C)Nc1c2c3ccccc3nc-2n(C)c2ccccc12 (stereo unspecified)
32
